Biological target: human Tissue Factor (TF) (human, UniProt P13726 33-295)
Experiment: cell-based or functional assay
Known % IL8 at 40 nM antibody of a selection of binders

| binder | % IL8 at 40 nM antibody |
| --- | --- |
| 25A5 (antibody, human IgG1, V domains shown) VH: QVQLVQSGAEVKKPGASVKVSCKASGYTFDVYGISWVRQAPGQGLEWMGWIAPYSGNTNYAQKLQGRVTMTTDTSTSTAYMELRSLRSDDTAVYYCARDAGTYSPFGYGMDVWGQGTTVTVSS VL: DIQMTQSPSTLSASVGDRVTITCRASESISNWLAWYQQKPGKAPKLLIYKAYSLEYGVPSRFSGSGSGTEFTLTISSLQPDDFATYYCQQFQKLPPFTFGGGTKVEIK | 7% |
| 39A (antibody, human IgG1, V domains shown, Human IgG1; also called antibody designated 39A) VH: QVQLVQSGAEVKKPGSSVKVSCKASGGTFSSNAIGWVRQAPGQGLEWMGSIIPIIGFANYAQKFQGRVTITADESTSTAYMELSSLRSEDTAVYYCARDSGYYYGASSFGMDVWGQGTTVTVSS VL: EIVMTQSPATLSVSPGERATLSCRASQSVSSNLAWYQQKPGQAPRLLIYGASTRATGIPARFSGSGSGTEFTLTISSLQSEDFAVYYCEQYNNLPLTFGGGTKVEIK | 2% |
| 25G (antibody, human IgG1, V domains shown, Human IgG1; also called antibody designated 25G) VH: QVQLVQSGAEVKKPGASVKVSCKASGYTFRSYGISWVRQAPGQGLEWMGWVAPYNGNTNYAQKLQGRVTMTTDTSTSTAYMELRSLRSDDTAVYYCARDAGTYSPYGYGMDVWGQGTTVTVSS VL: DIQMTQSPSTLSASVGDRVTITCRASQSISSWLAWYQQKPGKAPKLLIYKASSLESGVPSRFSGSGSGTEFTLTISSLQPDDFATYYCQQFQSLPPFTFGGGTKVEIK | 10% |
